Ref: the Human Domainome abundance scans (Beltran et al. 2025)

B1: Gamma-crystallin C, residues 4 to 79; numbered along this chain, P07315 (parent)
chain: ITFYEDRAFQGRSYETTTDCPNLQPYFSRCNSIRVESGCWMLYERPNYQGQQYLLRRGEYPDYQQWMGLSDSIRSC

variants of: B1; test: abundance fitness (aPCA) (normalised: wild type 0, dead -1); higher = more abundant; growth selection in yeast, the domain comes from the species named; settings: Homo sapiens
// label = yes if abundance fitness is not less than -0.1, otherwise no

- S37A: no
- C39E: yes
- R56K: yes
- T2W: no
- S70D: yes
- N22V: yes
- Y14E: no
- Y48L: no
- E44R: yes
- E59V: yes
- N31G: yes
- Q24D: yes
- Q52T: no
- C20F: no
- R57F: yes
- Q64V: yes
- G50K: no
- Q65W: no
- F27N: no
- R34T: yes
- S28G: yes
- L23V: yes
- C39S: yes
- I73E: no
